protocol-notes: Plasma Stability Assay (Example A2), human plasma
Assay type: in vitro ADME
measurement-conditions: 37° C., prodrug remaining, 60 min
// reported Prodrug (%) per item
measure-name: Prodrug (%)

{"compound": "COc1ccc([C@@]23CCC(OP4(=O)OCC(C)(C)CO4)=C[C@@H]2N(C)CC3)cc1OC [Compound 323]", "units": "%", "limit-sign": "=", "result": 38.1}
{"compound": "COc1ccc([C@@]23CCC(OC(=O)N4CCN(C)CC4)=C[C@@H]2N(C)CC3)cc1OC [Compound 327]", "units": "%", "limit-sign": ">", "result": 99}
{"compound": "COc1ccc([C@@]23CCC(OP(=O)(Oc4ccccc4)Oc4ccccc4)=C[C@@H]2N(C)CC3)cc1OC [Compound 320]", "units": "%", "limit-sign": "=", "result": 95.7}
{"compound": "COc1ccc([C@@]23CCC(OC(=O)N(C)C)=C[C@@H]2N(C)CC3)cc1OC [Compound 324]", "units": "%", "limit-sign": ">", "result": 99}
{"compound": "COc1ccc([C@@]23CCC(OP(=O)(OC(C)C)OC(C)C)=C[C@@H]2N(C)CC3)cc1OC [Compound 321]", "units": "%", "limit-sign": ">", "result": 99}
{"compound": "CCN(C)C(=O)OC1=C[C@@H]2N(C)CC[C@]2(c2ccc(OC)c(OC)c2)CC1 [Compound 326]", "units": "%", "limit-sign": "=", "result": 98.4}
{"compound": "COc1ccc([C@@]23CCC(OP(=O)(O)O)=C[C@@H]2N(C)CC3)cc1OC [Compound 359]", "units": "%", "limit-sign": "=", "result": 50.4}

###

protocol-notes: Hydrolysis Assay - Condition 2 (DI Water)
Format: physicochemical
measurement-conditions: 25° C., 0.5 mM, 1 min
Protocol: 50 uL of compound (10 mM) in DMSO was diluted into 950 uL of DI water to a final concentration of 0.5 mM. The hydrolysis kinetics were conducted at 25° C. and measured by LCMS at a certain time interval. The corresponding LCMS chromatogram were recorded and the conversions were calculated by integration of each peak. […]

{"compound": "COc1ccc([C@@]23CCC(OP4(=O)OCC(C)(C)CO4)=C[C@@H]2N(C)CC3)cc1OC [Compound 323]", "Conversion (%)": 0}
{"compound": "CCN(C)C(=O)OC1=C[C@@H]2N(C)CC[C@]2(c2ccc(OC)c(OC)c2)CC1 [Compound 326]", "Conversion (%)": 0}
{"compound": "COc1ccc([C@@]23CCC(OC(=O)N(C)C)=C[C@@H]2N(C)CC3)cc1OC [Compound 324]", "Conversion (%)": 0}

###

Catalogue of Conversion (%) readings, one per entry.
protocol-notes: Hydrolysis Assay - Condition 2 (DI Water)
Assay type: physicochemical
measurement-conditions: 25° C., 0.5 mM, 1 min

{"molecule": "COc1ccc([C@@]23CCC(OP(=O)(OCc4ccccc4)OCc4ccccc4)=C[C@@H]2N(C)CC3)cc1OC [Compound 319]", "Conversion (%)": 2}
{"molecule": "COc1ccc([C@@]23CCC(OP(=O)(Oc4ccccc4)Oc4ccccc4)=C[C@@H]2N(C)CC3)cc1OC [Compound 320]", "Conversion (%)": 0}
{"molecule": "COc1ccc([C@@]23CCC(OC(=O)N4CCN(C)CC4)=C[C@@H]2N(C)CC3)cc1OC [Compound 327]", "Conversion (%)": 0}
{"molecule": "COc1ccc([C@@]23CCC(OP(=O)(OC(C)C)OC(C)C)=C[C@@H]2N(C)CC3)cc1OC [Compound 321]", "Conversion (%)": 0}

Data origin: patent US20260015322A1
